# Tested on: human insulin receptor isoform B (human, UniProt P06213 28-1382)
# Assay procedure: cell-based or functional assay

{"Binder": "scl-Fc fusion protein INS015 (Fc fusion) SFVNQHLCGSHLVEALHLVCGERGFHYTPKTEEYPGDVGIVEQCCTSICSLSQLENYCGGEAEDLQVGQVELGGGPGAGSLQPEGSLQGGPSVFLFPPKPKDTLMISRTPEVTCVVVDVSHEDPEVKFNWYVDGVEVHNAKTKPREEQYNSTYRVVSVLTVLHQDWLNGKEYKCKVSNKALPAPIEKTISKAKGQPREPQVYTLPPSRDELTKNQVSLTCLVKGFYPSDIAVEWESNGQPENNYKTTPPVLDSDGSFFLYSKLTVDKSRWQQGNVFSCSVMHEALHNHYTQKSLSLSPGGGGGSAESKYGPPCPPCPA", "Endpoint unit": "nM", "hIR-B-phosphorylation [EC50 nM] mean": 56.3}
